system.tested: T1, human formyl peptide receptor like-1 (FPRL-1) receptor (human, UniProt P25090 1-351)
T1 sequence (looked up): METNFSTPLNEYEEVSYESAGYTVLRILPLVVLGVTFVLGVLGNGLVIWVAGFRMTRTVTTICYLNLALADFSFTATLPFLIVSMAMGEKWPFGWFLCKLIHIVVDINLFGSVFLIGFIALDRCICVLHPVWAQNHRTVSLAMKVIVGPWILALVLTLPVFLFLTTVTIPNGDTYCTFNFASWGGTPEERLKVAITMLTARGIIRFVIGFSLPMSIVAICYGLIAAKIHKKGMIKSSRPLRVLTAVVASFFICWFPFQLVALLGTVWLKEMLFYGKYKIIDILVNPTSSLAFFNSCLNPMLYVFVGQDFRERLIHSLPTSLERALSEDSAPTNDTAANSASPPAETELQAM
protocol: cell-based or functional assay
Ends that are not written are not given here. * marks the point of attachment. For = O=C*
endpoint: EC50(nM), transient Ca2+ flux in HEK293/Gα16 cells expressing FPRL-1

>  <binder>
PPFFFRPVGMF [peptide DM-1]

>  <observed.measurement>
2400

$$$$
>  <binder>
For-SLLWLTCRPWEAM [f-A5, N-terminally formylated derivative of peptide A5]

>  <observed.measurement>
2

$$$$
>  <binder>
CPAAVLWRWVPM [peptide AF-1]

>  <observed.measurement>
16

$$$$
>  <binder>
RFPKNCHLRPPRMILFTALV [peptide AF-3]

>  <observed.measurement>
650

$$$$
>  <binder>
For-Met-Leu-Phe [fMLP, formyl-MLF]

>  <observed.measurement>
40

$$$$

[I] SLLWLTCRPWEAM [peptide A5, Ser-Leu-Leu-Trp-Leu-Thr-Cys-Arg-Pro-Trp-Glu-Ala-Met]
[II] MMWLL [peptide MMWLL, Met-Met-Trp-Leu-Leu]
// which entry has the larger EC50(nM), transient Ca2+ flux in HEK293/Gα16 cells expressing FPRL-1 value, I or II ? // caller expects the label of the chosen entry
II
(II: 80 nM, I: 35 nM)
